Source: ChEMBL document CHEMBL3885881

- Organism: Rattus norvegicus
- test.method.notes: DrugMatrix - Regimen: Daily Repeat
- Type: toxicity, organism-based, Sprague-Dawley
- Design: regimen Daily Repeat, gender Male, age 6-8 weeks
- condition.details: in vivo, po, 0 mg/kg, 120 h, tissue Plasma, route oral GAVAGE, dose level Control, time 5 day, vehicle 100 % WATER
Give t when the value for URIC ACID is at least 0.8 mg/dL. Give f when it is less.

Use the examples below as a reference point.
Cn1cnc([N+](=O)[O-])c1Sc1ncnc2nc[nH]c12: f
COc1ccc(C(CN(C)C)C2(O)CCCCC2)cc1 (stereo not given): t
NNC(=O)c1ccncc1: t
CN1CCC[C@H]1c1cccnc1: t

Now look at this entry.
Please tell me: is the compound CC(C)(S)[C@@H](N)C(=O)O at or over 0.8 mg/dL in terms of URIC ACID?
f

----------
Hi there, I'd appreciate the recorded CREATININE for every entry that follows.
- Species: Rattus norvegicus
- test.method.notes: DrugMatrix - Regimen: Daily Repeat
- Type: toxicity, organism-based, Sprague-Dawley
- Design: regimen Daily Repeat, gender Male, age 6-8 weeks
- condition.details: in vivo, po, 0 mg/kg, 120 h, tissue Plasma, route oral GAVAGE, dose level Control, time 5 day, vehicle .5 % CMC
Numbers only, in mg/dL.

Dear colleague, could you send me CREATININE for each of the items below? Thanks.
1. COC(=O)c1ccc(O)cc1 [METHYLPARABEN]
2. CC(/C=C1\SC(=S)N(CC(=O)O)C1=O)=C\c1ccccc1
3. COc1c(C)c2c(c(O)c1C/C=C(\C)CCC(=O)OCCN1CCOCC1)C(=O)OC2 [MYCOPHENOLATE MOFETIL]
4. O=c1cc(-c2ccccc2)oc2c1ccc1ccccc12 [ALPHA-NAPHTHOFLAVONE]

[0.17, 0.19, 0.19, 0.4]

Give measured CREATININE for every item shown.
1. O=c1[nH]cc(F)c(=O)[nH]1 [FLUOROURACIL]
2. C[C@]12CCC(=O)C=C1CC[C@@H]1[C@@H]2C(=O)C[C@@]2(C)[C@H]1CC[C@]2(O)C(=O)CO [CORTISONE]
3. CN1C(C(=O)Nc2ccccn2)=C(O)c2ccccc2S1(=O)=O [PIROXICAM]

1. 0.2
2. 0.58
3. 0.62

----------
Give GLUCOSE for every item shown.
- Species on record: Rattus norvegicus
- test.method.notes: DrugMatrix - Regimen: Daily Repeat
- Type: toxicity, organism-based, Sprague-Dawley
- Parameters: regimen Daily Repeat, gender Male, age 6-8 weeks
- condition.details: in vivo, po, 0 mg/kg, 120 h, tissue Plasma, route oral GAVAGE, dose level Control, time 5 day, vehicle 100 % WATER
Give bare numbers, in mg/dL.

Here is how some molecules turned out for GLUCOSE.
Clc1ccc(C(c2ccccc2Cl)C(Cl)Cl)cc1 (configuration not stated): 152.5
CC1(C)S[C@@H]2[C@H](NC(=O)[C@H](N)c3ccc(O)cc3)C(=O)N2[C@H]1C(=O)O: 173.5
NCC1(CC(=O)O)CCCCC1: 161.33

List GLUCOSE for every entry below, keeping the order given.
1. CNCCC=C1c2ccccc2CCc2ccccc21
2. COc1cccc(C2(O)CCCCC2CN(C)C)c1 (configuration not stated)

[145.67, 137]

Could you tell me GLUCOSE for each of these molecules? They are listed below.
1. COc1cc2c(N3CCN(C(=O)Nc4ccc(OC(C)C)cc4)CC3)ncnc2cc1OCCCN1CCCCC1
2. CN1CCN(C(=O)OC2c3nccnc3C(=O)N2c2ccc(Cl)cn2)CC1 (configuration not stated)

1. 156.5
2. 139.33
